Taken from the supplement of paper PMC10515830.

- System: Danio rerio larvae (5 dpf)
- MEASUREMENT_DESCRIPTION: difference in activity during first hour vs DMSO (percentage points); higher = more activity than DMSO
- REPORTED_CONDITIONS: 10 µM; exposure time 6 h
Counter-ions that a name gives are not always drawn.
Reported difference in activity during first hour values follow for various compounds
ENDPOINT_NAME: difference in activity during first hour

INSERT INTO measurements (compound, readout_number) VALUES
  ('CN(C)CCC(c1ccc(Br)cc1)c1ccccn1 (stereo not drawn) [Brompheniramine (maleate)]', -11.7),
  ('CCOC(=O)[C@H](CCc1ccccc1)N[C@@H](C)C(=O)N1CCC[C@H]1C(=O)O [Enalapril (maleate)]', -0.995),
  ('CCN1CCN(Cc2ccc(Nc3ncc(F)c(-c4cc(F)c5nc(C)n(C(C)C)c5c4)n3)nc2)CC1', -3.04),
  ('COc1ccc([C@@H]2Sc3ccccc3N(CCN(C)C)C(=O)[C@@H]2OC(C)=O)cc1 [Diltiazem (hydrochloride)]', 11.2),
  ('Nc1nc(Cl)nc2c1ncn2[C@@H]1O[C@H](CO)[C@@H](O)[C@@H]1F', 0.725),
  ('CCc1ccc(CCOc2ccc(CC3SC(=O)NC3=O)cc2)nc1 (stereo not drawn) [Pioglitazone (hydrochloride)]', -15.3),
  ('Nc1ccc(O)c(C(=O)O)c1', 3.09),
  ('CCC[C@H](N[C@@H](C)C(=O)N1[C@H](C(=O)O)C[C@@H]2CCCC[C@@H]21)C(=O)OCC', 15);

###

- Tested on: Danio rerio larvae (5 dpf)
- MEASUREMENT_DESCRIPTION: difference in excitability vs DMSO (percentage points); higher = more excitable than DMSO
- REPORTED_CONDITIONS: 10 µM; exposure time 6 h
ENDPOINT_NAME: difference in excitability

INSERT INTO results (compound, readout_number) VALUES
  ('CC(=O)O[C@]1(C(C)=O)CC[C@H]2[C@@H]3C[C@H](C)C4=CC(=O)CC[C@]4(C)[C@H]3CC[C@@]21C [Medroxyprogesterone 17-acetate]', 9.28),
  ('COCCOC(=O)C1=C(C)NC(C)=C(C(=O)OC(C)C)C1c1cccc([N+](=O)[O-])c1 (centres undefined)', 7.48),
  ('CCCCC(=O)N(Cc1ccc(-c2ccccc2-c2nnn[nH]2)cc1)[C@H](C(=O)O)C(C)C', -0.389),
  ('S=P(N1CC1)(N1CC1)N1CC1', 0.228);

###

- System: Danio rerio larvae (5 dpf)
- MEASUREMENT_DESCRIPTION: difference in combined optomotor response to red, green and blue moving lines vs DMSO (percentage points); higher = stronger optomotor response than DMSO
- REPORTED_CONDITIONS: 10 µM; exposure time 6 h
Where a name gives a salt, the structure may show the parent alone.
ENDPOINT_NAME: difference

INSERT INTO results (molecule, target_desc, endpoint_name, readout_number) VALUES
  ('CN(Cc1ccc(C(C)(C)C)cc1)Cc1cccc2ccccc12 [Butenafine (hydrochloride)]', 'Danio rerio larvae (5 dpf)', 'difference', -2.95),
  ('CC/C=C\C/C=C\C/C=C\C/C=C\C/C=C\CCCC(=O)OCC', 'Danio rerio larvae (5 dpf)', 'difference', 7.27),
  ('CCN[C@H]1C[C@H](C)S(=O)(=O)c2sc(S(N)(=O)=O)cc21 [Dorzolamide (hydrochloride)]', 'Danio rerio larvae (5 dpf)', 'difference', 3.26),
  ('N[C@@H]1CONC1=O', 'Danio rerio larvae (5 dpf)', 'difference', 10.3),
  ('O=C(O)c1ccc(-n2nc(-c3ccccc3O)nc2-c2ccccc2O)cc1', 'Danio rerio larvae (5 dpf)', 'difference', 5.07),
  ('Cc1c(C(=O)Nc2ccc(N3C[C@@H](C)O[C@@H](C)C3)nc2)cccc1-c1ccc(OC(F)(F)F)cc1 [LDE225 (phosphate)]', 'Danio rerio larvae (5 dpf)', 'difference', 3.16),
  ('Nc1nc2c(ncn2COCCO)c(=O)[nH]1', 'Danio rerio larvae (5 dpf)', 'difference', -2.63),
  ('O=C(O)CCCN1CCC(O[C@@H](c2ccc(Cl)cc2)c2ccccn2)CC1 [Bepotastine (besylate)]', 'Danio rerio larvae (5 dpf)', 'difference', 1.29),
  ('FC(F)OC(Cl)C(F)(F)F (configuration not stated)', 'Danio rerio larvae (5 dpf)', 'difference', -13),
  ('COc1cc(C(=O)NCc2ccc(OCCN(C)C)cc2)cc(OC)c1OC [Trimethobenzamide (hydrochloride)]', 'Danio rerio larvae (5 dpf)', 'difference', -5.61),
  ('CCCC(CCC)C(=O)O [Valproic Acid (sodium salt)]', 'Danio rerio larvae (5 dpf)', 'difference', 3.32),
  ('CC(=O)O[C@H]1Cc2ccccc2N(C(N)=O)c2ccccc21 [Eslicarbazepine Acetate]', 'Danio rerio larvae (5 dpf)', 'difference', -2.32),
  ('O=C1[C@H](CC[C@H](O)c2ccc(F)cc2)[C@@H](c2ccc(O)cc2)N1c1ccc(F)cc1', 'Danio rerio larvae (5 dpf)', 'difference', 7.17),
  ('C[C@H](N)[C@H](O)c1cccc(O)c1 [Metaraminol (tartrate)]', 'Danio rerio larvae (5 dpf)', 'difference', -6.91),
  ('CCc1c(Cl)c(O)c(Cl)c(O)c1C(=O)O[C@H]1[C@H](O)[C@H](OC)[C@H](OCC2=CC=CC[C@H](O)C(C)=C[C@H](CC)[C@@H](O[C@@H]3OC(C)(C)C(OC(=O)C(C)C)[C@H](O)[C@@H]3O)C(C)=CC(C)=CC[C@@H]([C@@H](C)O)OC2=O)O[C@@H]1C (some centres not stated)', 'Danio rerio larvae (5 dpf)', 'difference', 4.75),
  ('CC=CC(=O)N(CC)c1ccccc1C', 'Danio rerio larvae (5 dpf)', 'difference', -3.13),
  ('CN(C)CC[C@@H](c1ccc(Cl)cc1)c1ccccn1 [Dexchlorpheniramine (maleate)]', 'Danio rerio larvae (5 dpf)', 'difference', -3.17),
  ('C=CC(=O)Nc1cc(Nc2nccc(-c3cn(C)c4ccccc34)n2)c(OC)cc1N(C)CCN(C)C', 'Danio rerio larvae (5 dpf)', 'difference', 2.87),
  ('CNC1(C)C2CCC(C2)C1(C)C (configuration not stated) [Mecamylamine (hydrochloride)]', 'Danio rerio larvae (5 dpf)', 'difference', 11.1),
  ('CN(C)CCC=C1c2ccccc2C=Cc2ccccc21 [Cyclobenzaprine (hydrochloride)]', 'Danio rerio larvae (5 dpf)', 'difference', 14.9),
  ('CCCCCN(C)CCC(O)(P(=O)(O)O)P(=O)(O)O [Ibandronate (sodium hydrate)]', 'Danio rerio larvae (5 dpf)', 'difference', -0.0828),
  ('CN1CCc2cccc3c2[C@H]1Cc1ccc(O)c(O)c1-3 [(-)-Apomorphine (hydrochloride hydrate)]', 'Danio rerio larvae (5 dpf)', 'difference', -13),
  ('CCN(CC)CCOc1ccc(C(=C(Cl)c2ccccc2)c2ccccc2)cc1 [Clomiphene (citrate)]', 'Danio rerio larvae (5 dpf)', 'difference', -16.4),
  ('CN1CC2c3ccccc3Oc3ccc(Cl)cc3C2C1 (racemic) [(±)-Asenapine]', 'Danio rerio larvae (5 dpf)', 'difference', -1.19),
  ('CC1=Nc2ccc(Cl)cc2S(=O)(=O)N1 [Diazoxide]', 'Danio rerio larvae (5 dpf)', 'difference', 5.23),
  ('O=C(O[C@H]1CN2CCC1CC2)N1CCc2ccccc2[C@@H]1c1ccccc1 [Solifenacin (succinate)]', 'Danio rerio larvae (5 dpf)', 'difference', 1.96),
  ('Nc1nc2c(c(=O)[nH]1)N(C=O)C(CNc1ccc(C(=O)NC(CCC(=O)O)C(=O)O)cc1)CN2 (racemic) [DL-Folinic Acid (calcium salt)]', 'Danio rerio larvae (5 dpf)', 'difference', 5.53),
  ('Clc1ccc(CSC(Cn2ccnc2)c2ccc(Cl)cc2Cl)cc1 (configuration not stated) [Sulconazole (nitrate)]', 'Danio rerio larvae (5 dpf)', 'difference', -16.4),
  ('COc1cc([C@@H]2c3cc4c(cc3[C@@H](O[C@@H]3O[C@@H]5CO[C@@H](C)O[C@H]5[C@H](O)[C@H]3O)[C@H]3COC(=O)[C@H]23)OCO4)cc(OC)c1O [Etoposide]', 'Danio rerio larvae (5 dpf)', 'difference', -5.33),
  ('C[C@@H]1O[C@@H]1P(=O)(O)O', 'Danio rerio larvae (5 dpf)', 'difference', -4.51),
  ('CNC(=O)c1cc(Oc2ccc(NC(=O)Nc3ccc(Cl)c(C(F)(F)F)c3)c(F)c2)ccn1', 'Danio rerio larvae (5 dpf)', 'difference', 1.15),
  ('CN1C2CCCC1CC(NC(=O)c1nn(C)c3ccccc13)C2 (configuration not stated) [Granisetron (hydrochloride)]', 'Danio rerio larvae (5 dpf)', 'difference', 7.51);
